Target: T1, human GARP (glycoprotein A repetitions predominant, LRRC32) on the cell surface (human, UniProt Q14392 20-662)
T1 construct: whole, on cells; also called hGARP; free GARP
T1 sequence (looked up): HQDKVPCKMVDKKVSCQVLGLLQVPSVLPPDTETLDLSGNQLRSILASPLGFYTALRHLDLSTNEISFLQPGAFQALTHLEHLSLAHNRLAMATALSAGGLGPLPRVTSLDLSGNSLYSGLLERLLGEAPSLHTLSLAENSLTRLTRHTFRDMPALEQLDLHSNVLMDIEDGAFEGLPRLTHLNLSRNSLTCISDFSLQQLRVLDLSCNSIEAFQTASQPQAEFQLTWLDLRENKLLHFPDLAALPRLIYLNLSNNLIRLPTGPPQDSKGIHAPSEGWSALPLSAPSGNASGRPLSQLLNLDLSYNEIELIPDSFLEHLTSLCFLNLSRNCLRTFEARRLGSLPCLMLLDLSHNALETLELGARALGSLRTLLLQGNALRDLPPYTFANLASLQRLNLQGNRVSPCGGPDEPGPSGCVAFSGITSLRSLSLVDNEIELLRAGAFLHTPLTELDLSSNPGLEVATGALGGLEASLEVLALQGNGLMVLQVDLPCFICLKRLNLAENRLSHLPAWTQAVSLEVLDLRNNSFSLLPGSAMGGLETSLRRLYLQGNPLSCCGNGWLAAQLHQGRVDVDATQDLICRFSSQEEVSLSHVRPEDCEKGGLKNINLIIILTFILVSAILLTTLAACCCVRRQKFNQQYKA
Experiment: FACS, Ag(+) cells, culture supernatant, 0.2 ug/ml
Listed here: items and their measured MFI.
Kindly provide the numeric value in MFI only, without the unit symbol.

Previously resolved entries follow.
Binder: huPIIO-1VH4VL3 (antibody, V domains shown, Humanized IgG from Expi293, tested as culture supernatant; also called H4L3; HuPIIO-1VH4/L3) VH: DVQLQESGPGLVKPSQTLSLTCTVSGYSITSDYAWNWIRQFPGNKLEWMGYISYSGSTSYTPSLKSRITISRDTSKNHFFLQLSSVTAEDTATYYCAKSGGDYYGSSSYWYFDVWGQGTTVTVSS VL: DIVLTQSPSSLAVSAGERVTMSCKSSQSLLNSRSQKNYLAWYQQKPGQPPKLLIYGASTRGSGVPDRFSGSGSGTDFTLTISSVQAEDVAVYYCQNDHSYPFTFGSGTKLEIKR
MFI, MFI: 25

Binder: huPIIO-1VH4VL1 (antibody, V domains shown, Humanized IgG from Expi293, tested as culture supernatant; also called H4L1; HuPIIO-1VH4/L1) VH: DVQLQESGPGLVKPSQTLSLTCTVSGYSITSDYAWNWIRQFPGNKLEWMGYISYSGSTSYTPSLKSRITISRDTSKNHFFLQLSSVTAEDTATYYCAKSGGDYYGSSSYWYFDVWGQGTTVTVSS VL: DIVLTQSPSSLAVSLGERATMNCKSSQSLLNSRSQKNYLAWYQQKPGQPPKLLIYGASTRGSGVPDRFSGSGSGTDFTLTISSLQAEDVAVYYCQNDHSYPFTFGQGTKLEIKR
MFI, MFI: 24.8

Binder: huPIIO-1VH4VL2 (antibody, V domains shown, Humanized IgG from Expi293, tested as culture supernatant; also called H4L2; HuPIIO-1VH4/L2) VH: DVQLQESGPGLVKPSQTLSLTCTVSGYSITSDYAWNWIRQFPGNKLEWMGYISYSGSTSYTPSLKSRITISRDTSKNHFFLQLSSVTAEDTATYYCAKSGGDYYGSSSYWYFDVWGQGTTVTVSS VL: DIVLTQSPSSLAVSLGERVTMNCKSSQSLLNSRSQKNYLAWYQQKPGQPPKLLIYGASTRGSGVPDRFSGSGSGTDFTLTISSVQAEDVAVYYCQNDHSYPFTFGQGTKLEIKR
MFI, MFI: 22.4

Binder: huPIIO-1VH2VL2 (antibody, V domains shown, Humanized IgG from Expi293, tested as culture supernatant; also called H2L2; HuPIIO-1VH2/L2) VH: QVQLQESGPGLVKPSQTLSLTCTVSGYSITSDYAWNWIRQFPGNKLEWMGYISYSGSTSYTPSLKSRITISRDTSKNHFFLKLSSVTAADTAVYYCAKSGGDYYGSSSYWYFDVWGQGTMVTVSS VL: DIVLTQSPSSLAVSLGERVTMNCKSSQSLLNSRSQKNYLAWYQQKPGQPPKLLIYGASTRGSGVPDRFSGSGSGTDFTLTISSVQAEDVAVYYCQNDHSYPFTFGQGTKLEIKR
MFI, MFI: 23.2

Binder: huPIIO-1VH3VL2 (antibody, V domains shown, Humanized IgG from Expi293, tested as culture supernatant; also called H3L2) VH: DVQLQESGPGLVKPSQTLSLTCTVSGYSITSDYAWNWIRQFPGNKLEWMGYISYSGSTSYTPSLKSRITISRDTSKNHFFLKLSSVTAADTATYYCAKSGGDYYGSSSYWYFDVWGQGTTVTVSS VL: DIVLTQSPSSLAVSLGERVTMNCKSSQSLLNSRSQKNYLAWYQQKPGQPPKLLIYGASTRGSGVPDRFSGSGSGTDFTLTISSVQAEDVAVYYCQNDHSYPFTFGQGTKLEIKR
MFI, MFI: 22.7

Binder: huPIIO-1VH1VL1 (antibody, V domains shown, Humanized 4D3/PIIO-1 IgG made in Expi293 cells; also called H1L1; HuPIIO-1VH1/L1) VH: QVQLQESGPGLVKPSQTLSLTCTVSGYSITSDYAWNWIRQFPGNKLEWMGYISYSGSTSYTPSLKSRVTISRDTSKNHFSLKLSSVTAADTAVYYCAKSGGDYYGSSSYWYFDVWGQGTMVTVSS VL: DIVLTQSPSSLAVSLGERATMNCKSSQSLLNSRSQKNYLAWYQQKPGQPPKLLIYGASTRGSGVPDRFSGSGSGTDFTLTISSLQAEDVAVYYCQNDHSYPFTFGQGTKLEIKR
MFI, MFI: 23.9

Binder: huPIIO-1VH2VL1 (antibody, V domains shown, Humanized IgG from Expi293; also called H2L1; HuPIIO-1VH2/L1) VH: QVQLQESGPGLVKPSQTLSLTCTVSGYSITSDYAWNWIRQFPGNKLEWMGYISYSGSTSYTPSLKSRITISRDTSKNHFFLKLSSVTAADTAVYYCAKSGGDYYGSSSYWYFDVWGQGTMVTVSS VL: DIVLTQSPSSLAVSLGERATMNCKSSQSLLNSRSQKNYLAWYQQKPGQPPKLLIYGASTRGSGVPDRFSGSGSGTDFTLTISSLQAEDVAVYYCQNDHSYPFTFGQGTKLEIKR
MFI, MFI: 23.3

Binder: huPIIO-1VH1VL3 (antibody, V domains shown, Humanized IgG from Expi293, tested as culture supernatant; also called H1L3; HuPIIO-1VH1/L3) VH: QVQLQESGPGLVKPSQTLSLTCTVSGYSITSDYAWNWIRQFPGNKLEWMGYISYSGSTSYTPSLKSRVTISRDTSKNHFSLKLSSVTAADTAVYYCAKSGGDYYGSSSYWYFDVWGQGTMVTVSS VL: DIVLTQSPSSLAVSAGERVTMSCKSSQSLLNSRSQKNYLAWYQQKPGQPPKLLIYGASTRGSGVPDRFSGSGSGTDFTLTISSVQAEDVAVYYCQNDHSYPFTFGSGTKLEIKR
MFI, MFI: 22.9

Binder: huPIIO-1VH1VL2 (antibody, V domains shown, Humanized IgG from Expi293; also called H1L2; HuPIIO-1VH1/L2) VH: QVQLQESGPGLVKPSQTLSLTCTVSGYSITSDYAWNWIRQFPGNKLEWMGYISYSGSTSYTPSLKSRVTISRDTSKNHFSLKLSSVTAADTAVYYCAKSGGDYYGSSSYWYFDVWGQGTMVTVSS VL: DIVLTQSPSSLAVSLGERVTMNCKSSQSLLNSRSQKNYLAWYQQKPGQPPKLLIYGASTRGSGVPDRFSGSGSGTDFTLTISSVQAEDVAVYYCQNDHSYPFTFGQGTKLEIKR
MFI, MFI: 22.2

Binder: huPIIO-1VH2VL3 (antibody, V domains shown, Humanized IgG from Expi293, tested as culture supernatant; also called H2L3; HuPIIO-1VH2/L3) VH: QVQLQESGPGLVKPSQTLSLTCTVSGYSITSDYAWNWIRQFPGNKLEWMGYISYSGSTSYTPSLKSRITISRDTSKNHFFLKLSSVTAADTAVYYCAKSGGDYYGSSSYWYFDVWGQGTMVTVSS VL: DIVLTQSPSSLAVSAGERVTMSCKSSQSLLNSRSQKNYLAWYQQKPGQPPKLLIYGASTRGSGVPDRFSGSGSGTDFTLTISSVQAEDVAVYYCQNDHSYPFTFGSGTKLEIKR
MFI, MFI: 23.4

Value lookup for MFI; key = huPIIO-1VH3VL1 (antibody, V domains shown, Humanized IgG from Expi293, tested as culture supernatant; also called H3L1; HuPIIO-1VH3/L1) VH: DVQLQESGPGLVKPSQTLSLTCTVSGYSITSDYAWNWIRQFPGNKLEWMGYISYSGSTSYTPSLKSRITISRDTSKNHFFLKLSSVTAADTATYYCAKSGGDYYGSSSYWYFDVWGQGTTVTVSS VL: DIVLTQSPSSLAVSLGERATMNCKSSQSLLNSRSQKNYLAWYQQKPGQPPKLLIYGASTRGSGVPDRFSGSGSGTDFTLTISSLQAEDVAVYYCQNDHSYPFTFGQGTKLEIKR
23.9

Measured values drawn from patent US20240425571A1 for this set.
